Target: purified human KSP motor domain (Homo sapiens)
Sequence (P52732 18-359 limits assumed): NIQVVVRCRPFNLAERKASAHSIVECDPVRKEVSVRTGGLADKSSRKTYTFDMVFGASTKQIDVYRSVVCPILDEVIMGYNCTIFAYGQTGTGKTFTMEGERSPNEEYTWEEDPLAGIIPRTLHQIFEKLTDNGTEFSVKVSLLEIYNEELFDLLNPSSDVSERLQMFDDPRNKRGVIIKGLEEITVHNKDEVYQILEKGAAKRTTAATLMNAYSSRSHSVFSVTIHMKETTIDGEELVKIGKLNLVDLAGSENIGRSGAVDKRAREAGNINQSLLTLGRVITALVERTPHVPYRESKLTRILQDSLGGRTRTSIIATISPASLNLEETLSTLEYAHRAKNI
Experiment: in vitro biochemical assay for microtubule-stimulated KSP ATPase activity
Would you mind telling me the reported pIC50 of each entry?
Give bare numbers, as −log10 of the molar value.

As a guide, the following entries are already answered.
COc1ccc(C(SCC(N)C(=O)NCCC#CC2=CN3C(=N[N+](=C(C)C)[B-]3(F)F)C=C2)(c2ccccc2)c2ccccc2)cc1 (stereo not drawn)    6.07
COc1ccc(C(SCC(N)C(=O)NCCC#CC2=CN3C(=N[N+](=C(C)C)[B-]3(OC)OC)C=C2)(c2ccccc2)c2ccccc2)cc1 (stereo not drawn)    6.22

Pending compound:
Prompt line: Give pIC50 (purified human KSP motor domain (Homo sapiens)) of the following compound: COc1ccc(C(SCC(N)C(=O)NCCOCCN)(c2ccccc2)c2ccccc2)cc1 (stereo not drawn)
Response line: 6.12
